All values here come from patent US7459557B2.

So I've got Ki readings for α1d-AR (Homo sapiens), take a look.
The answer is to be given in nM; state only the numeric part.

[in] I have this molecule here, CC(C)Oc1ccccc1N1CCN([C@H]2CC[C@@H](N3C(=O)c4ccc5ccc(F)cc5c4C3=O)CC2)CC1 [Cpd 8] , and I need its recorded Ki.
[out] 16.4

[in] Now the same for CC(C)Oc1ccccc1N1CCN(C2CCC(N3C(=O)c4c(F)c(F)c(F)c(F)c4C3=O)CC2)CC1 (mixture of isomers) [Cpd 1]
[out] 30.2

[in] Now the same for CC(C)Oc1ccccc1N1CCN([C@H]2CC[C@H](N3C(=O)c4cccc(F)c4C3=O)CC2)CC1 [Cpd 3]
[out] 0.09
